Tested system: peripheral β2 -receptors (Canis lupus familiaris)
Construct: from tissue; host or cells: femoral arterial bed of anaesthetised mongrel dogs, in vivo
Sequence (P54833 whole entry): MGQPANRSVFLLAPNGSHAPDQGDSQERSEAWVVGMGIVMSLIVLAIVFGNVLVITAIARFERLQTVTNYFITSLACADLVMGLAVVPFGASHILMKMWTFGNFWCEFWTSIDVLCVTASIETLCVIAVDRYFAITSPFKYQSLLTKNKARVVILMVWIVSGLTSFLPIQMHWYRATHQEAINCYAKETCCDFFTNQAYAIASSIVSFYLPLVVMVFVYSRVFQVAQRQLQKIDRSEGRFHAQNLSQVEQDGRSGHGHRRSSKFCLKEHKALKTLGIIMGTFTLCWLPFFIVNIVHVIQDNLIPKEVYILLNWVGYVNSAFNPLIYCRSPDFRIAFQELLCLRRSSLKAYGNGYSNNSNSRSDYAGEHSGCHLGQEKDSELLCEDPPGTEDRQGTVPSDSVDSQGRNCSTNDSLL
Assay method text: inhibition of isoproterenol effect on blood flow through arteria femoralis (peripheral β2-receptors) in anaesthetised dogs
Format: in vivo, mongrel dogs
Particulars: dog; cumulative intravenous dose for 50% inhibition of effect of isoproterenol (0.05 gamma/kg intraarterially) on blood flow through a. femoralis; chloralose/urethane/morphine anaesthesia; read-out: ED50 β2 mg/kg intraveneously
Observable: ED50 (mg/kg)
Please give a number only; it is taken to be in mg/kg.

Example molecules with recorded ED50:
Molecule: Cn1c(NCCNCC(O)COc2ccc(OCCO)cc2)cc(=O)n(C)c1=O (centres unmarked) [Example 14]
ED50, mg/kg: 8.83

Molecule: Cn1c(NCCNCC(O)COc2ccc(OCc3ccccc3)cc2)cc(=O)n(C)c1=O (centres unmarked) [Example 19]
ED50, mg/kg: 4.48

Now let's try a different one.
// ED50 lookup, key: COc1ccc(OCC(O)CNCCNc2cc(=O)n(C)c(=O)n2C)cc1 (centres unmarked) [Example 11]
5.36

---

Tested system: β1 -receptors of the heart (Canis lupus familiaris)
Construct: from tissue; host or cells: heart (left ventricle) of anaesthetised mongrel dogs, in vivo
Sequence (P79148 whole entry): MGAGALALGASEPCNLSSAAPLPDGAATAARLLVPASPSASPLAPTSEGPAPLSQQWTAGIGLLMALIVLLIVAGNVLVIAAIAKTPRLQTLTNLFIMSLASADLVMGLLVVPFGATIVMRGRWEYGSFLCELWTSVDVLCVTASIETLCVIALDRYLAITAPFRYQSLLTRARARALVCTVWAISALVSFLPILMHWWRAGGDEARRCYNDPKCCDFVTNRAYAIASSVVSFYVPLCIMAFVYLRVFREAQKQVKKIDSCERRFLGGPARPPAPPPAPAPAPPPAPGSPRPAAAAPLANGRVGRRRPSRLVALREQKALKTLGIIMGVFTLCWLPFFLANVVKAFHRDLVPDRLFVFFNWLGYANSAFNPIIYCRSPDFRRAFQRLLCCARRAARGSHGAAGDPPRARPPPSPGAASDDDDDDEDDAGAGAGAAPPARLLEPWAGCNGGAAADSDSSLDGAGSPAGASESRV
Assay method text: inhibition of isoproterenol effect on dp/dtmax of left ventricle (β1-receptors of the heart) in anaesthetised dogs
Assay type: in vivo, mongrel dogs
Particulars: number significantly >1 indicates cardioselective action
Observable: ratio of the doses, ED50 β2 / ED50 β1 (head is drawing 43)
Kindly provide the number alone.

Example compounds with recorded ratio of the doses, ED50 β2 / ED50 β1 (head is drawing 43):
Compound: COc1ccc(OCC(O)CNCCNc2cc(=O)n(C)c(=O)n2C)cc1 (centres unmarked)
Tested system: β1 -receptors of the heart (Canis lupus familiaris)
Reported: 341
--
Compound: Cn1c(NCCNCC(O)COc2ccc(OCCO)cc2)cc(=O)n(C)c1=O (centres unmarked)
Tested system: β1 -receptors of the heart (Canis lupus familiaris)
Reported: 303

Now let's try a different one.
// ratio of the doses, ED50 β2 / ED50 β1 (head is drawing 43) lookup, key: Cn1c(NCCNCC(O)COc2ccc(OCc3ccccc3)cc2)cc(=O)n(C)c1=O (centres unmarked)
322
